human dopamine D3 receptors (Homo sapiens): recorded pKi for assorted compounds
Sequence (P35462 whole entry): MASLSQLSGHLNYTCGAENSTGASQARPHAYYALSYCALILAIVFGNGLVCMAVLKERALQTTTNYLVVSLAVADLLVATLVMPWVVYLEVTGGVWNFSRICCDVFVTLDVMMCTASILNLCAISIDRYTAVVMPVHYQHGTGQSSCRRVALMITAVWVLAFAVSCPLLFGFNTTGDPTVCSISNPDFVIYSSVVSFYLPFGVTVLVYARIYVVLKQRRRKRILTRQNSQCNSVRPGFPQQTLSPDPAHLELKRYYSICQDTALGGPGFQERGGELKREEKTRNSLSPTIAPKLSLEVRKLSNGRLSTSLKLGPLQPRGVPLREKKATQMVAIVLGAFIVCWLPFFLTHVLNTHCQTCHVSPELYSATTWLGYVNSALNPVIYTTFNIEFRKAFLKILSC
pKi is a log-scale quantity: -log10 of the concentration expressed in molar.

Worked cases, answers included:
CC(C)(C)c1nc(N2CCN(CCCCn3ccc(-c4cccc(F)c4)nc3=O)CC2)cc(C(F)(F)F)n1    8.03
C/C(=C\CN1CCN(c2cc(C(F)(F)F)nc(C(C)(C)C)n2)CC1)Cn1cc(C)c(=O)[nH]c1=O    8.42
CCCc1cc(N2CCN(CCCCn3ccc(-c4ccco4)nc3=O)CC2)nc(C(C)(C)C)n1    9.14
CC(C)(C)c1ccn(CCCCN2CCN(c3cc(C4CC4)nc(C(C)(C)C)n3)CC2)c(=O)n1    8.84
C/C(=C\CN1CCN(c2cc(C(F)(F)F)nc(C(C)(C)C)n2)CC1)Cn1ccc(=O)[nH]c1=O    8.27
Cc1ccc(-c2ccn(CCCCN3CCN(c4cc(C(F)(F)F)nc(C(C)(C)C)n4)CC3)c(=O)n2)cc1    7.87

In: pKi of Cc1ccccc1-c1ccn(CCCCN2CCN(c3cc(C(F)(F)F)nc(C(C)(C)C)n3)CC2)c(=O)n1 on human dopamine D3 receptors (Homo sapiens)?
Out: 8.36

* * *

Entries and their Selectivity D3 vs. D2L*
Biological target: human dopamine D2L receptors (long isoform) (Homo sapiens)
Construct: expressed in transfected cells
Sequence (P14416 whole entry, canonical isoform): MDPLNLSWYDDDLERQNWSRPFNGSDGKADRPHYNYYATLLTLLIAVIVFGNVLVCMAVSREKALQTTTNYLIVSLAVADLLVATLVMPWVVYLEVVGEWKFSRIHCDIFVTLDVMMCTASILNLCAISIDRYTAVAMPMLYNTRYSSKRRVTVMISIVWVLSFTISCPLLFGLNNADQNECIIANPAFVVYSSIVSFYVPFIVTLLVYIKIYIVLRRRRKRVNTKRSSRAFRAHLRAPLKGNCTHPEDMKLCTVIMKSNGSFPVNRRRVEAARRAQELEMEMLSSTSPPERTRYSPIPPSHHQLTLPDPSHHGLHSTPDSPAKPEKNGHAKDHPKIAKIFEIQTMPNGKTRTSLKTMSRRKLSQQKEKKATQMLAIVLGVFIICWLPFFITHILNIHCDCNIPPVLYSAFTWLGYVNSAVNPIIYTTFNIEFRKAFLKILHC
Test: Dopamine D2L receptor binding, displacement of [125I]-iodospiperone
Conditions: *Ki(D2L)/Ki(D3), HEK-293 membranes, 0.01 nM [125I]-iodospiperone

CCc1cn(CCCCN2CCN(c3cc(C(F)(F)F)nc(C(C)(C)C)n3)CC2)c(=O)[nH]c1=O    89
CCCc1cc(N2CCN(C(C)CCCn3cc(C)c(=O)[nH]c3=O)CC2)nc(C(C)(C)C)n1 (single isomer, unassigned; (+)) [Example 63]    65
CCCc1cc(N2CCN(C/C=C(\C)Cn3cc(C)c(=O)[nH]c3=O)CC2)nc(C(C)(C)C)n1    62
Cc1cn(CCCCN2CCN(c3cc(C(F)(F)F)nc(C(C)(C)C)n3)CC2)c(=O)nc1S    88
Cc1ccn(CCCCN2CCN(c3cc(C(C)C)nc(C(C)(C)C)n3)CC2)c(=O)n1.Cl    66

In: Report Selectivity D3 vs. D2L* for Cc1cn(CCCCN2CCN(c3cc(C(C)(C)C)nc(C(C)(C)C)n3)CC2)c(=O)nc1O tested on human dopamine D2L receptors (long isoform) (Homo sapiens).
Out: 53

In: Notebook entry, human dopamine D2L receptors (long isoform) (Homo sapiens) assay: Selectivity D3 vs. D2L* of CC(C)(C)c1ccn(CCCCN2CCN(c3cc(C(F)(F)F)nc(C(C)(C)C)n3)CC2)c(=O)n1 = ?
Out: 82

In: API: value(readout= Selectivity D3 vs. D2L*, system= human dopamine D2L receptors (long isoform) (Homo sapiens), query= CC(C)(C)c1ccn(CCCCN2CCN(c3cc(C4CC4)nc(C(C)(C)C)n3)CC2)c(=O)n1 )
Out: 96

In: Hi! What's the reported Selectivity D3 vs. D2L* for CC(C)(C)c1nc(N2CCN(CCCCn3ccc(-c4cccc(F)c4)nc3=O)CC2)cc(C(F)(F)F)n1 on human dopamine D2L receptors (long isoform) (Homo sapiens)?
Out: 31

In: Lab note: need Selectivity D3 vs. D2L* with human dopamine D2L receptors (long isoform) (Homo sapiens) for entry Cc1cn(CCCCN2CCN(c3cc(C(F)(F)F)nc(C(C)(C)C)n3)CC2)c(=O)nc1-c1ccccc1 , please look it up.
Out: 55

In: For the record Cc1cn(CCCCN2CCN(c3cc(C(F)(F)F)nc(C(C)(C)C)n3)CC2)c(=O)nc1N(C)C.Cl , what value of Selectivity D3 vs. D2L* is listed for human dopamine D2L receptors (long isoform) (Homo sapiens)?
Out: 63

In: Which Selectivity D3 vs. D2L* is reported with human dopamine D2L receptors (long isoform) (Homo sapiens) for this entry: CC(C)(C)c1nc(N2CCN(CCCCn3cc(F)c(=O)[nH]c3=O)CC2)cc(C(F)(F)F)n1.Cl ?
Out: 201

In: Find Selectivity D3 vs. D2L* (human dopamine D2L receptors (long isoform) (Homo sapiens)) for the entry Cc1cn(CCCCN2CCN(c3cc(C(F)(F)F)nc(C(C)(C)C)n3)CC2)c(=O)n(C)c1=O
Out: 34

In: Notebook entry, human dopamine D2L receptors (long isoform) (Homo sapiens) assay: Selectivity D3 vs. D2L* of CC(CCCn1ccc(=O)[nH]c1=O)N1CCN(c2cc(C(F)(F)F)nc(C(C)(C)C)n2)CC1 (stereo not drawn) = ?
Out: 49

In: Notebook entry, human dopamine D2L receptors (long isoform) (Homo sapiens) assay: Selectivity D3 vs. D2L* of CCCc1cc(N2CCN(CCCCn3ccc(O)nc3=O)CC2)nc(C(C)(C)C)n1 = ?
Out: 108

In: Hi! What's the reported Selectivity D3 vs. D2L* for CCCc1cc(N2CCN(CCCCn3ccc(-c4ccsc4)nc3=O)CC2)nc(C(C)(C)C)n1 on human dopamine D2L receptors (long isoform) (Homo sapiens)?
Out: 40

In: Reported Selectivity D3 vs. D2L* for human dopamine D2L receptors (long isoform) (Homo sapiens), given Cc1cn(CCCCN2CCN(c3cc(C4CC4)nc(C(C)(C)C)n3)CC2)c(=O)nc1O ?
Out: 134

In: What value of Selectivity D3 vs. D2L* on human dopamine D2L receptors (long isoform) (Homo sapiens) does CC(=O)O.CCCc1cc(N2CCN(CCCCn3cc(Cl)c(=O)[nH]c3=O)CC2)nc(C(C)(C)C)n1 have?
Out: 150

In: Form field - read-out: Selectivity D3 vs. D2L*; system: human dopamine D2L receptors (long isoform) (Homo sapiens); submitted item: CC(C)(C)c1nc(N2CCN(CCCCn3cc(C(F)(F)F)c(=O)[nH]c3=O)CC2)cc(C(F)(F)F)n1
Out: 119

In: // fetch human dopamine D2L receptors (long isoform) (Homo sapiens) Selectivity D3 vs. D2L* for CC(C)(C)c1nc(N2CCN(CCCCn3ccc(-c4ccccc4F)nc3=O)CC2)cc(C(F)(F)F)n1
Out: 39

In: Entry CCCc1cc(N2CCN(CCCCn3ccc(-c4ccc(F)cc4)nc3=O)CC2)nc(C(C)(C)C)n1 , system human dopamine D2L receptors (long isoform) (Homo sapiens): what Selectivity D3 vs. D2L* was measured?
Out: 158

In: So what Selectivity D3 vs. D2L* did CCCc1cc(N2CCN(CCCCn3ccc(-c4ccco4)nc3=O)CC2)nc(C(C)(C)C)n1 get with human dopamine D2L receptors (long isoform) (Homo sapiens)?
Out: 77

In: Notebook: pull reported Selectivity D3 vs. D2L* for human dopamine D2L receptors (long isoform) (Homo sapiens), entry CCCc1cc(N2CCN(CCCCn3ccc(C)nc3=O)CC2)nc(C(C)(C)C)n1.Cl
Out: 116

In: Could you share what Selectivity D3 vs. D2L* was measured for Cc1cn(CCCCN2CCN(c3cc(C(C)C)nc(C(C)(C)C)n3)CC2)c(=O)[nH]c1=O.Cl , tested on human dopamine D2L receptors (long isoform) (Homo sapiens)?
Out: 67

In: Fill in the recorded Selectivity D3 vs. D2L* for this compound, with human dopamine D2L receptors (long isoform) (Homo sapiens) as test system: CC(C)(C)c1nc(N2CCN(CCCCn3cc(C#N)c(=O)[nH]c3=O)CC2)cc(C(F)(F)F)n1
Out: 99

* * *

// each record: one item and its pKi for human dopamine D3 receptors (Homo sapiens, UniProt P35462)
Bear in mind: pKi is minus log10 of a mol/L concentration; give just that figure.

Answered cases to consult:
Cc1cn(CCCCN2CCN(c3cc(Cl)cc(Cl)c3)CC2)c(=O)[nH]c1=O    9.34
CCCc1cc(N2CCN(C/C=C(\C)Cn3cc(C)c(=O)[nH]c3=O)CC2)nc(C(C)(C)C)n1    8.48
CCCc1cc(N2CCN(C(C)CCCn3cc(C)c(=O)[nH]c3=O)CC2)nc(C(C)(C)C)n1.Cl (stereo not shown)    8.27
CCCc1cc(N2CCN(CCCCn3ccc(-c4cccc(C)c4)nc3=O)CC2)nc(C(C)(C)C)n1    8.74
Cc1ccccc1N1CCN(CCCCn2cc(C)c(=O)[nH]c2=O)CC1    8.17

Next item in the queue.
In: Look up pKi: CC(=O)O.CC(C)(C)c1nc(N2CCN(CCCCn3ccc(C4CC4)nc3=O)CC2)cc(C(F)(F)F)n1 [Example 94, acetate]
Out: 8.37

* * *

Biological target: human dopamine D2L receptors (long isoform) (Homo sapiens)
Construct: expressed in transfected cells
Assay: Dopamine D2L receptor binding, displacement of [125I]-iodospiperone
Settings: *Ki(D2L)/Ki(D3), HEK-293 membranes, 0.01 nM [125I]-iodospiperone
# Selectivity D3 vs. D2L* per entry
Please give only the number in your answer, with no unit.

In: What value of Selectivity D3 vs. D2L* has been reported for the following compound? Cc1cc(N2CCN(CCCCn3cc(C)c(O)nc3=O)CC2)nc(C(C)(C)C)n1
Out: 67

In: Which Selectivity D3 vs. D2L* value belongs to Cc1cccc(N2CCN(CCCCn3cc(C)c(=O)[nH]c3=O)CC2)c1C ?
Out: 55
